Overview of reported melting point across a group of compounds:

# COMPOUND, MEASURED VALUE
measured = [
    ("COc1cccc(C(O)c2cc3ccccc3s2)c1 (configuration not stated)", "63 to 65 °C"),
    ("O=C(NCCO)c1cccc(-c2cccc3c2OC(Cc2cccc(C(F)(F)F)c2)C3)c1 (configuration not stated)", "161 to 162 °C"),
    ("NCc1ccc2sc3ccccc3c(=O)c2c1", "134 to 136 °C"),
    ("CC(CCC1(C(N)=O)c2ccccc2-c2ccccc21)N(C)C (configuration not stated)", "104 to 106 °C"),
    ("CSc1nn2c(N(C)C)cc(C)nc2c1S(=O)(=O)c1ccc(Cl)cc1", "221 to 223 °C"),
]

Request: Suppose we examine the compound `CCOC(=O)c1cc(=O)c2cc(OCCC(C)C)ccc2s1` ; what melting point value has been reported?
Response: 83 to 84 °C

Request: Suppose we examine the compound `O=C(O)Cc1sc(S)nc1-c1ccc(Cl)cc1` ; what melting point value has been reported?
Response: 245 to 247 °C

Request: Suppose we examine the compound `CCc1c(C(=O)OC)c(C(=O)OC)c2n1-c1ccccc1C2` ; what melting point value has been reported?
Response: 86 to 88 °C

Request: Suppose we examine the compound `O=S(=O)(CCO)c1ccc(S(=O)(=O)CCO)cc1` ; what melting point value has been reported?
Response: 209 to 212 °C

====

PROPERTY LABEL: melting point

# COMPOUND, melting point
data = [
    ("COC(=O)/C=C/c1ccc(NC(=O)CCCBr)nc1", "156 to 173 °C"),
    ("CCNc1nnc2ccc(-c3cccc(N(CC)C(=O)CC)c3)nn12", "164 to 166 °C"),
    ("CC(=O)N1CCc2c(sc(C)c2CCN2CCC(c3nn(-c4ccc(F)cc4)c4cc(F)ccc34)CC2)C1", "193 to 196 °C"),
    ("ON=C1CCCc2occ(-c3cccc(Cl)c3)c21", "157 to 158 °C"),
]

Request: Suppose we examine the compound CC(=O)Nc1cccc2c1S(=O)(=O)N=C2C1=C(O)C(C(C)(C)C)N(Cc2ccc(F)cc2)C1=O (centres undefined) ; what melting point value has been reported?
Response: 164 to 167 °C

Request: Suppose we examine the compound O=C1CCCCC1C(C[N+](=O)[O-])c1ccc(Cl)c(Cl)c1 (racemic) ; what melting point value has been reported?
Response: 109 to 110 °C

Request: Suppose we examine the compound `O=C(Nc1ccc(C(=O)N2CCc3cn[nH]c3-c3ncccc32)c(Cl)c1)c1ccccc1-c1ccccc1` ; what melting point value has been reported?
Response: 181 to 192 °C

Request: Suppose we examine the compound `CCN(CC)c1ccc(/C=C/c2cc(/C=C/c3ccc4cc[nH]c4c3)[nH]n2)c(OCCN2CCCCC2)c1` ; what melting point value has been reported?
Response: 102 to 104 °C

Request: Suppose we examine the compound `CNS(=O)(=O)c1ccc(NN=C2C(=O)Nc3ccc4ncsc4c32)cc1` ; what melting point value has been reported?
Response: > 260 °C

====

Overview of reported melting point across a group of compounds:

# COMPOUND, MEASURED VALUE
records = [
    ("Cc1nn(C)c(Oc2ccccn2)c1C=O", "56 to 57 °C"),
    ("O=C(c1ccccc1)c1cc(Cc2ccccc2)c(O)c2ccccc12", "152 to 155 °C"),
    ("Cc1cc([N+](=O)[O-])c(Cl)c([N+](=O)[O-])c1CBr", "115 to 120 °C"),
    ("CC(C)n1c(=O)nc(-c2cnc3ccccc3c2)c2cc3c(cc21)OCO3", "279 to 281 °C"),
    ("COc1cccc(CC[C@H]2CNCCN2)c1", "53 to 57 °C"),
]

Request: Suppose we examine the compound O=C1CCCCC1C(=S)Nc1ccc(Cl)cc1F (stereo not given) ; what melting point value has been reported?
Response: 97 to 98 °C

Request: Suppose we examine the compound `CCOC(=O)CN1C(=O)c2ccc3ccccc3c2S1(=O)=O` ; what melting point value has been reported?
Response: 149 to 150 °C

Request: Suppose we examine the compound CC(=O)OC1CCCN(C(=O)c2ccc(NC(=O)c3ccccc3C)cc2)c2ccccc21 (stereo not given) ; what melting point value has been reported?
Response: 193 to 194 °C

Request: Suppose we examine the compound CC(C)(C)OC(=O)NC(Cc1cc(C(=O)c2cc(C(F)(F)F)cc(C(F)(F)F)c2)ccc1[N+](=O)[O-])C(=O)OC(C)(C)C (stereo not given) ; what melting point value has been reported?
Response: 176 to 177 °C

Request: Suppose we examine the compound `CCOC(=O)COc1ccc2c(c1)C[C@H](NC(=O)OC(C)(C)C)CC2` ; what melting point value has been reported?
Response: 113 to 115 °C

Request: Suppose we examine the compound `Cc1oc(-c2ccccc2)nc1COc1ccc(OCc2ncccc2CC(=O)O)cc1` ; what melting point value has been reported?
Response: 126 to 127 °C

Request: Suppose we examine the compound `O=C(Nc1ccccn1)c1cnc2c(c1O)CN(C(=O)OCc1ccccc1)CC2` ; what melting point value has been reported?
Response: 272 to 274 °C

Request: Suppose we examine the compound COc1cccc2c1CCC(O)(C(C)=O)C2 (stereo not given) ; what melting point value has been reported?
Response: 63 to 63.5 °C

Request: Suppose we examine the compound `CC(C)Oc1cccc(CSc2nc(N)cc(Cl)n2)c1` ; what melting point value has been reported?
Response: 71 °C

Request: Suppose we examine the compound O=C(NCc1ccccc1)NC(Cc1ccccc1)C(=O)O (stereo not given) ; what melting point value has been reported?
Response: 115 to 117 °C

Request: Suppose we examine the compound O=C(NC(Cc1ccccc1F)C(=O)N1CCSC1)c1cc2cc(Cl)ccc2[nH]1 (stereo not given) ; what melting point value has been reported?
Response: 216 to 217 °C

Request: Suppose we examine the compound `CCCc1c(O)c(C(C)=O)cc(Br)c1OCCCOc1c(C(C)=O)ccc(OCC(=O)O)c1CCC` ; what melting point value has been reported?
Response: 129 to 130 °C

Request: Suppose we examine the compound `Cc1nn(C)cc1C(=O)NC1=C(c2ccc(Cl)cc2)CCC1` ; what melting point value has been reported?
Response: 103 to 105 °C

Request: Suppose we examine the compound `CCCCN(CCCC)CCCOc1ccc(S(=O)(=O)c2ncsc2-c2ccccc2)cc1` ; what melting point value has been reported?
Response: 110 °C

Request: Suppose we examine the compound `Cc1cc(C(=O)O)nn1CC(=O)Nc1ccccc1` ; what melting point value has been reported?
Response: 273 to 275 °C

====

Overview of reported melting point across a group of compounds:

A selection of reference data follows.
# COMPOUND, MEASURED VALUE
measured = [
    ("CCN(CC)CCCOc1cccc(-c2oc3ccccc3c2C(=O)c2cc(C)cc(C)c2)c1", "114 to 121 °C"),
    ("Cc1ccc(Sc2c(Cl)c(C(=O)O)c(C(O)=NCCO)c(Cl)c2Sc2ccc(C)cc2)cc1", "211 to 212 °C"),
    ("CC(C(=O)O)c1cccc2cn[nH]c12 (stereo not given)", "171 to 176 °C"),
    ("CCN(CC)CCN1C(=O)c2cc(N)cc3cc([N+](=O)[O-])cc(c23)C1=O", "174 °C"),
    ("Cc1c(F)c(Cl)cc2c1c(=O)c(C(=O)O)cn2C1CC1", "258 to 260 °C"),
]

Request: Suppose we examine the compound N#CC1CN1C(=O)C1(c2ccc(Cl)cc2)CCCC1 (stereo not given) ; what melting point value has been reported?
Response: 80 to 82 °C

Request: Suppose we examine the compound `N#Cc1nn(-c2c(Cl)cc(C(F)(F)F)cc2Cl)c(Cl)c1SC(F)(F)F` ; what melting point value has been reported?
Response: 131 to 132 °C

Request: Suppose we examine the compound `O=C(c1ccc(-c2ccn(C(=O)C3CC3)n2)cc1)N1Cc2cccn2Cc2ccccc21` ; what melting point value has been reported?
Response: 197 to 199 °C

Request: Suppose we examine the compound `O=C(Cc1ccc(F)cc1)N1CCN(Cc2ccccc2)CC1` ; what melting point value has been reported?
Response: 99 to 101 °C

Request: Suppose we examine the compound CC1CCCCN1C(=O)COc1nc(C(Cl)(Cl)Cl)ns1 (stereo not given) ; what melting point value has been reported?
Response: 88 °C

====

Overview of reported melting point across a group of molecules:

A selection of reference data follows.
# MOLECULE, melting point
data = [
    ("Fc1cc(OC23CC4CC(CC(C4)C2)C3)ccc1N1CCCC1", "99 to 106 °C"),
    ("CCCc1c(C(=O)C(C)C)c2ccc(CC(=O)O)cc2n1Cc1cc2c(cc1Cl)OCO2", "81 to 83 °C"),
    ("CN(C)CCCn1c2c(c3cc(Br)ccc31)CCS(=O)(=O)CCC2", "135 to 137 °C"),
    ("CN1C[C@]2(C)CC[C@](NCC(=O)N3C[C@@H](F)C[C@H]3C#N)(C1)C2(C)C", "122 to 126 °C"),
    ("O=C(Nc1cnc2c(c1)OCCN2)c1cc2cc(F)ccc2n1Cc1cccc(F)c1", "265 to 266 °C"),
    ("O=C(Nc1ccc(Cl)cc1F)c1cc(-c2ccc(F)cc2F)ccc1O", "245 to 246 °C"),
    ("Brc1ccc(Cc2ccc(Br)cc2)cc1", "62 to 62.5 °C"),
    ("Cc1nc(Nc2ccccc2)sc1-c1ccnc(Nc2ccc(N3CCN(Cc4ccccc4)CC3)cc2)n1", "227 to 229 °C"),
    ("CC1(C)NC(=O)N(c2ccc([N+](=O)[O-])c(C(F)(F)F)c2)C1=O", "149 °C"),
    ("O=c1[nH]c2cccnc2o1", "252 °C"),
]

Request: Suppose we examine the molecule CC(F)(F)c1ccc(Oc2ccc(C3CCCN4CCS(=O)(=O)N=C34)cc2)cc1 (stereo unspecified) ; what melting point value has been reported?
Response: 171 to 172 °C

Request: Suppose we examine the molecule `CC(C)(S)CNC(=O)COCC(=O)O` ; what melting point value has been reported?
Response: 81 to 82 °C

Request: Suppose we examine the molecule `CCCCC(=NCC(=O)OCC)c1cc(Cl)ccc1N` ; what melting point value has been reported?
Response: 96 to 97 °C

Request: Suppose we examine the molecule `Cc1noc(C)c1S(=O)(=O)n1c(=O)sc2ccccc21` ; what melting point value has been reported?
Response: 140 to 144 °C

Request: Suppose we examine the molecule `Oc1ccc(-c2nc3cccc(O)c3[nH]2)cc1C12CC3CC(CC(C3)C1)C2` ; what melting point value has been reported?
Response: 307 to 309 °C

Request: Suppose we examine the molecule CNC(=S)NS(=O)(=O)c1cc(CCNC(=O)C=Cc2cccs2)ccc1OCC1CCCO1 (stereo unspecified) ; what melting point value has been reported?
Response: 78 °C

Request: Suppose we examine the molecule `COC(=O)c1ccc(Nc2ccc(C#N)cc2NC(C)=O)cc1` ; what melting point value has been reported?
Response: 231 to 232 °C
